system: Neuregulin-1 EGF-like domain; test: binders of neuregulin-1 EGF-like domain, primary screen, biochemical, small-molecule microarray, 635 nm fluorescence (AID 1081); conditions: small-molecule microarray binding, higher = more signal;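 further: binding of the protein to compounds printed on small-molecule microarray slides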
Lab note: compare composite z-score against 1. Equal or greater, write yes. Smaller, write no.

COc1ccc(C(O)C2C=CC3C(=O)N(C)C(=O)C3N2N2CCCCC2)cc1 (configuration not stated)
yes
CC(C)CN1C(=O)[C@@]2(c3ccc([N+](=O)[O-])cc3)CC(=O)N(CC34CC5CC(CC(C5)C3)C4)[C@@H]2c2ccc(CO)cc21
no
COc1ccc([Si](C)(C)[C@H]2[C@H](CCn3cc([C@H](O)c4ccccc4)nn3)O[C@@]3(C(=O)N(Cc4ccc(N5CCC5=O)cc4)c4ccccc43)[C@@H]2C)cc1
no
CCOC(=O)C1=CC[C@@H](c2ccccc2)N(S(=O)(=O)c2ccc(C)cc2)C1
no
COC(=O)[C@@]1(Cc2ccccc2)[C@H]2c3cc(C(=O)N4CCCC4)n(Cc4cc(F)cc5c4OCOC5)c3C[C@H]2CN1C(=O)c1ccccc1
yes

Please turn your attention to the following entry.
// inclusive: composite z-score at least 1? input: Cc1ccc(S[C@]2(C(=O)NCC(C)C)CC(=O)N(Cc3ccccc3Cl)[C@@H]2c2ccc(CO)cc2I)cc1 yes

----------
system: Wnt5a (protein binding on small-molecule microarray); assay: Wnt5a binders on small-molecule microarray, primary screen, biophysical, 635/667 nm fluorescence (AID 1142); details: 635 nm fluorescence, higher = more signal;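 further: fluorescence read at 667 nm with signal to noise per printed feature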
Lab note: compare composite z-score against -0.2. Equal or greater, write True. Smaller, write False.

The following molecules have reported results that may help.
C=CCOC(=O)[C@H]1[C@@H]2C(=O)O[C@@H](c3ccccc3)[C@@H](c3ccccc3)N2[C@@H](c2ccc(OCCOC(=O)[C@H]3C[C@H]4C(=O)N[C@@H](Cc5ccccc5)C(=O)N4[C@H]3c3ccc(O)cc3)cc2)[C@]12C(=O)Nc1ccc(I)cc12
True
CC(C)(C)OC(=O)CC[C@]1(C(=O)O)N=C(c2ccc(OCCCO)cc2)O[C@H]1c1ccccc1
False
O=C1OCC=C[C@H]2OC34C=CCN(c5ccc(Cl)cc5)C(=O)[C@H]3N(CCCCCO)C(=O)[C@@H]4[C@@H]12 (some centres not stated)
False
COC(=O)[C@@]1(Cc2ccc(OC)cc2)[C@H]2c3cc(C(=O)N(C)C)n(CCc4c[nH]c5ccc(O)cc45)c3C[C@H]2CN1C(=O)c1ccccc1
True
C=CC[C@@]12N=C(c3ccc(OCCCO)cc3)O[C@@H]1c1ccccc1N(CCS(=O)(=O)c1ccccc1)C2=O
True
COc1ccc(NN2C(C(O)c3ccco3)C=CC3C(=O)N(C4CCCCC4)C(=O)C32)cc1 (configuration not stated)
True

Please turn your attention to the following entry.
// inclusive: composite z-score at least -0.2? input: C[C@]1(C(=O)NCCN2CCOCC2)c2ccccc2C(=O)N(Cc2ccc(OC(F)(F)F)cc2)[C@H]1c1ccc(CO)cc1 False

----------
Readings of composite z-score for the listed compounds
system: Inhibin beta A chain (activin A); assay: INHBA (activin A) binders on microarrays, primary screen, biochemical, small-molecule microarray, 635 nm fluorescence scan (AID 1107); details: small-molecule microarray binding, higher = more signal;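 further: mouse activin A protein probed at 4.33 µg/mL on printed slides; score merges bound-protein fluorescence near 667 nm with spot signal-to-noise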

CC(=O)n1cc(C(O)C2C=CC3C(=O)N(Cc4ccccc4)C(=O)C3N2n2cnnc2)c2ccccc21 (centres undefined)
0.713
CN1C2C=C(CCCO)C(C3C(=O)N(C(N)=O)C(=O)C32)C1c1cccs1 (centres undefined)
0.418
CC=CC(O)C1C=CC2C(=O)N(C)C(=O)C2N1Nc1ccc([N+](=O)[O-])cc1[N+](=O)[O-] (centres undefined)
1.11

Shifting focus to the compound that follows.
Kindly state the measured composite z-score obtained for C=CCN1C(=O)[C@@]2(O[C@@H](CCn3cc([C@H](O)c4ccccc4)nn3)[C@H]([Si](C)(C)c3ccc(OC)cc3)[C@H]2C)c2ccccc21 with Inhibin beta A chain (activin A). 0.0239

----------
target: Epidermal growth factor receptor (Homo sapiens) (UniProt P00533); test: EGFR binders on small-molecule microarrays, primary screen, biochemical, small-molecule microarray, 635 nm fluorescence (AID 1104); conditions: EGFR binding, higher = more signal;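 further: score merges 667 nm emission intensity with spot signal to noise over triplicate slides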
Sequence (P00533 whole entry, looked up): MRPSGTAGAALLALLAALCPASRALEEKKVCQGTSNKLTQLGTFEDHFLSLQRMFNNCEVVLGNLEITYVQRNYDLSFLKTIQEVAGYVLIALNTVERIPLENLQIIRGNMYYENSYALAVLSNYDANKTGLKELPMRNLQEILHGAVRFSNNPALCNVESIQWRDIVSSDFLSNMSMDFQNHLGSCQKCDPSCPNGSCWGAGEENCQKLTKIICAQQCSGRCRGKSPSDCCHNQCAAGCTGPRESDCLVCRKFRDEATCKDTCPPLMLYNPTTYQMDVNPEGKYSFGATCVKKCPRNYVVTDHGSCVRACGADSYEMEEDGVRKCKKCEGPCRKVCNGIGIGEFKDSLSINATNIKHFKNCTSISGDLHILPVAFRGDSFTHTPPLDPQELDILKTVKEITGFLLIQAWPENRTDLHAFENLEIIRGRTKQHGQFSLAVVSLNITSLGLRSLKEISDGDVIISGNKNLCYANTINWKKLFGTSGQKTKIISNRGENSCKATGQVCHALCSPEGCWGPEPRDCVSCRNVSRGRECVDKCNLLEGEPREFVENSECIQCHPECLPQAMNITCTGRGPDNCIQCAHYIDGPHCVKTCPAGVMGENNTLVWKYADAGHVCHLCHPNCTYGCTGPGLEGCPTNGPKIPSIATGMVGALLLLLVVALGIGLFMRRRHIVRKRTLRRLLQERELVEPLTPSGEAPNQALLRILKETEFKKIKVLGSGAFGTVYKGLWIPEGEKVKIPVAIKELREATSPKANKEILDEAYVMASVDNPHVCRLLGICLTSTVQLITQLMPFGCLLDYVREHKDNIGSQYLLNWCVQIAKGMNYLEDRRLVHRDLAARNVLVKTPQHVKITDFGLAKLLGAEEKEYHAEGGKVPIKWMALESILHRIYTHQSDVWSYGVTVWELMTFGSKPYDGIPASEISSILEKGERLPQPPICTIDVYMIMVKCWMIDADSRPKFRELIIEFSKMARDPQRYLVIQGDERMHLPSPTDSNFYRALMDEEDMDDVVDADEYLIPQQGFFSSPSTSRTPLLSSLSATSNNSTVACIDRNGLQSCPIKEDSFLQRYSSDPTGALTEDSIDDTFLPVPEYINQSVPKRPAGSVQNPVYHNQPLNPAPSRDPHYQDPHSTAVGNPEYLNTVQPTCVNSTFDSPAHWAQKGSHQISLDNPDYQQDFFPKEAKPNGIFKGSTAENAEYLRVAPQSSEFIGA
Readings of composite z-score for the listed compounds

COC(=O)[C@@]1(Cc2ccc(F)cc2)[C@H]2c3cc(C(=O)N4CCCC4)n(CCc4c[nH]c5ccc(OC)cc45)c3C[C@H]2CN1C(=O)c1ccccc1
0.763
NCCCCCCNC(=O)[C@H]1C[C@H]2C(=O)N[C@@H](Cc3ccccc3)C(=O)N2[C@H]1c1ccc(O)cc1
0.92
C=CC[C@]12N=C(c3ccc(OCCCO)cc3)O[C@H]1c1ccccc1N(C)C2=O
0.177

Shifting focus to the compound that follows.
May I ask what composite z-score has been recorded for CCCC[C@@H]1C[C@H]1[C@@H](NC(=O)c1cccnc1)c1ccc(-c2ccccc2)cc1 ? -1.46

----------
target: Torsin-1A-interacting protein 1 (Homo sapiens); test: LAP1 binders from COS7 cell lysate, primary screen, small-molecule microarray, 635/667 nm fluorescence (AID 1116); settings: COS7-hLAP1 lysate binding, 635 nm fluorescence, higher = more signal
outcomeMeasure: composite z-score

O=C1NC(=O)C2C1C=CC(C(O)c1ccc(Br)cc1)N2Nc1ccccn1 (stereo not given)
0.531
COc1cc2c(cc1OC)CN(C(=O)[C@H]1[C@@H]3C(=O)O[C@@H](c4ccccc4)[C@@H](c4ccccc4)N3[C@@H](c3ccc(OCCO)cc3)[C@]13C(=O)Nc1ccc(C#CC4(O)CCCCCC4)cc13)CC2
0.964
CCCNC(=O)[C@@]1(c2ccc([N+](=O)[O-])cc2)CC(=O)N(C2CCCCC2)[C@@H]1c1ccc(CO)cc1I
1.33
COC(=O)[C@H](Cc1ccccc1)N1CC(/C=C/C2CC2)=C[C@@H]1[C@@H](O)Cc1ccccc1
0.0412

Kindly state the measured composite z-score obtained for COC(=O)C(CC#Cc1ccc2c(c1)[C@]1(C(=O)N2)[C@H](C(=O)O)[C@H]2C(=O)O[C@H](c3ccccc3)[C@H](c3ccccc3)N2[C@@H]1c1ccccc1OCCO)C(=O)OC with Torsin-1A-interacting protein 1 (Homo sapiens). 1.1

----------
target: Calmodulin-1 (Homo sapiens) (UniProt P0DP23); assay: calcium-bound CALM1 binders on microarrays, profiling panel, artefact control for SMM control-protein annotation, biochemical, small-molecule microarray, Cy5-labelled CALM1, plus calcium (AID 1112); conditions: Cy5-CALM1 binding fluorescence, higher = more signal;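 further: score merges spot fluorescence with signal to noise from triplicate slides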
Readings of composite z-score for the listed compounds

Kindly state the measured composite z-score obtained for COCCOC(=O)N1C(=O)[C@@]2(c3cc(C#CCC(C(=O)OC)C(=O)OC)ccc31)[C@H](c1ccc(OCCO)cc1)N1[C@H](c3ccccc3)[C@H](c3ccccc3)OC(=O)[C@H]1[C@@H]2C(=O)N1CCN(c2ncccn2)CC1 with Calmodulin-1 (Homo sapiens) (UniProt P0DP23). 0.377

Follow-up entry: COC(=O)C(CC#Cc1ccc2c(c1)[C@]1(C(=O)N2)[C@H](C(=O)O)[C@H]2C(=O)O[C@H](c3ccccc3)[C@H](c3ccccc3)N2[C@@H]1c1ccccc1OCCO)C(=O)OC 0.369

Follow-up entry: CN(C)CCCNC(=O)[C@@]1(C)c2ccccc2C(=O)N(Cc2cc(C(F)(F)F)cc(C(F)(F)F)c2)[C@H]1c1ccc(CO)cc1 0.0751

----------
Readings of z-score for the listed compounds
test: HepG2 liver cancer cell viability effects, profiling panel, resazurin fluorescence, 24 h, PK04 Diversity Set (AID 1172); details: higher = more signal; further: test concentration not given here

[N-]=[N+]=Nc1ccccc1C[C@]1(C(=O)NCc2ccccc2)N=C(c2ccc(OCCCO)cc2)O[C@H]1c1ccccc1
-0.328
COC(=O)[C@@]1(Cc2ccc(OC)cc2)[C@H]2c3cc(C(=O)N(C)C)n(Cc4ccccc4)c3C[C@H]2CN1C(=O)c1ccccc1
2.31
COC(=O)[C@@]1(Cc2ccc(F)cc2)[C@H]2c3cc(C(=O)N4CCCC4)n(CCF)c3C[C@H]2CN1C(=O)c1ccccc1
-0.282
NC(=O)NCC#Cc1ccc2c(c1)[C@]1(C(=O)N2)[C@H](C(=O)Nc2nc3ccccc3s2)[C@H]2C(=O)O[C@H](c3ccccc3)[C@H](c3ccccc3)N2[C@@H]1c1ccc(O)cc1
0.493
O=C1O[C@@H](c2ccccc2)[C@@H](c2ccccc2)N2[C@@H](c3ccc(O)cc3)[C@]3(C(=O)Nc4ccc(C#CCCO)cc43)[C@@H](C(=O)Nc3nc4ccccc4s3)[C@H]12
0.43
Cc1ccc(F)cc1S(=O)(=O)N[C@@H]1CCN(Cc2ccc(Oc3ccccc3)cc2)C1
-0.971

Shifting focus to the compound that follows.
May I ask what z-score has been recorded for COc1ccc(C(O)C2C=CC3C(=O)N(c4ccccc4)C(=O)C3N2Nc2ccc(C#N)cc2)c2ccccc12 (configuration not stated) ? -1.47
